This collection of values is drawn from patent US20240239875A1.

- assayed-target: SARS-CoV-2 prefusion stabilized trimer protein (WIV02 isolate spike protein) (UniProt P0DTC2 14-1213)
- experiment-notes: ELISA
Hi! Just check whether EC50 is below 1 nM. Below gives yes (1), equal or above gives no (0).

Record excerpt, results attached:
9-J11-A (antibody, V domains shown) VH: QVQLQQSGAELVKPGASVKMSCMASGYTFTTYPIEWMKQIHGKSLEWIGNFHPYNDDSKYNEKFKGKATLSVEKSSSTVYLELSRSTSDDSAVYYCARGSYGPYWYFDVWGTGTTVTVSS VL: DIQMTQSPASLSASVGETVTITCRASGDIHNYLVWYQQKQGKSPQLLVYNAKALADGVPSRFSGSGSGTQYSLKINSLQPDDFGSYYCQHFWSIPYTFGGGTKLEIK | yes (1)
10-O3-A (antibody, V domains shown) VH: QVQLKESGPGLVAPSQSLSITCTVSGFSLTNYAVHWVRQSPGKGLEWLGVIWSDGRTDYNAAFISRLSISKDNSKSQVFFKMNSLQADDTAIYYCVRIEGGSYVGWYFDVWGAGTTVTVSS VL: DIQMTQSPSSLSASLGGTVTITCKASQDINKFIAWYQHKPGKGPRLLIHYTSTLQPGIPSRFSGSGSGRDYSFSISNLEPEDIATYYCLQYDNLLTFGAGTKLELK | no (0)
9-L13-A (antibody, V domains shown) VH: QVQLKESGPGLVAPSQSLSITCTVSGFSLTSYAISWVRQPPGKGLEWLGLIWTGGGTNYNSALKSRLSISKDNSKSQIFLKMNSLQTDDTARYYCARGPPLIYYGDLYYFDYWGQGTTLTVSS VL: DIQMTQSPSSLSASLGGKVTITCKASQDINKYIAWYQHKPGKGPRLLIHYTSTLQPGIPSRFSGSGSGRDYSFSISNLEPEDIATYYCLQYDNLWTFGGGTKLEIK | no (0)

-- ask Please determine if 6-C19-A (antibody, V domains shown) VH: EVQLQQSGPELVKPGASVKMSCKASGYTFTDYNIHWVKQSHGKSLEWIGYINPNNGGTDYNQKFQGKATLTVDKSSSTAYMELRSLTSEDSAVYYCARGGFYGNYGSYYGMDFWGQGTSVTVSS VL: DIQMTQSPASLSASVGETVTITCRTSENIYSHLAWYQQTQGKSPHLLVYNAKTLAEGVPSRFSGSGSGTQFSLKINSLQPEDFGSYFCQHHYGIPPEFGGGTKLEIK is below 1 nM in terms of EC50.
-- reply yes (1)
